Just for reference, patent US20260217767A1 is where these values come from.

- target_or_test_system: rh integrin α4β7 (Homo sapiens, UniProt P13612+P26010)
- Construct: purchased R&D Systems 5397-A30
- Sequence (P13612 34-977 limits assumed): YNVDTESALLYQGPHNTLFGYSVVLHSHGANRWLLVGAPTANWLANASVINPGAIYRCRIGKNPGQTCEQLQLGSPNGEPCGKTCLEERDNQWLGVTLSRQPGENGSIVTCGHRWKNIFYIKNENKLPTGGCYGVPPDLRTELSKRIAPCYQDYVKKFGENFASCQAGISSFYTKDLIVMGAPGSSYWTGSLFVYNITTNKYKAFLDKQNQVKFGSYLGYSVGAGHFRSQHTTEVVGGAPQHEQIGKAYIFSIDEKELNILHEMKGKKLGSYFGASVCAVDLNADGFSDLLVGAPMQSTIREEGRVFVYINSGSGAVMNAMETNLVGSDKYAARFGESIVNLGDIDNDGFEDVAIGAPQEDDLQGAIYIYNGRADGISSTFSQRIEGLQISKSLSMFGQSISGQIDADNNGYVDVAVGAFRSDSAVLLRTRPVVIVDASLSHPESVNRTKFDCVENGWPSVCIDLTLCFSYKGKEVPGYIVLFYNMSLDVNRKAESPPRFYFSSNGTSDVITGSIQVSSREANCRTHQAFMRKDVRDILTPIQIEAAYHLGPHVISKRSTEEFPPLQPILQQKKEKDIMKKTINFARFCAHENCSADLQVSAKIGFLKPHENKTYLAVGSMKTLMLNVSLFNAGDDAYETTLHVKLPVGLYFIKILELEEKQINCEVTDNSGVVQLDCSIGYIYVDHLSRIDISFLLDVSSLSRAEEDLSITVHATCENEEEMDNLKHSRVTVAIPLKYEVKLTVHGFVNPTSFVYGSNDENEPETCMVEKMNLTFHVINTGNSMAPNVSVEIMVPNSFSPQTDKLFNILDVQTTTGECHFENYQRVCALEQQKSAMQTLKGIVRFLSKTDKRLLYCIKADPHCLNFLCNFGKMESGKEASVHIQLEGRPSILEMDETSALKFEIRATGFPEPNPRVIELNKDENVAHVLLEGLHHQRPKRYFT
- Sequence (P26010 20-723 limits assumed): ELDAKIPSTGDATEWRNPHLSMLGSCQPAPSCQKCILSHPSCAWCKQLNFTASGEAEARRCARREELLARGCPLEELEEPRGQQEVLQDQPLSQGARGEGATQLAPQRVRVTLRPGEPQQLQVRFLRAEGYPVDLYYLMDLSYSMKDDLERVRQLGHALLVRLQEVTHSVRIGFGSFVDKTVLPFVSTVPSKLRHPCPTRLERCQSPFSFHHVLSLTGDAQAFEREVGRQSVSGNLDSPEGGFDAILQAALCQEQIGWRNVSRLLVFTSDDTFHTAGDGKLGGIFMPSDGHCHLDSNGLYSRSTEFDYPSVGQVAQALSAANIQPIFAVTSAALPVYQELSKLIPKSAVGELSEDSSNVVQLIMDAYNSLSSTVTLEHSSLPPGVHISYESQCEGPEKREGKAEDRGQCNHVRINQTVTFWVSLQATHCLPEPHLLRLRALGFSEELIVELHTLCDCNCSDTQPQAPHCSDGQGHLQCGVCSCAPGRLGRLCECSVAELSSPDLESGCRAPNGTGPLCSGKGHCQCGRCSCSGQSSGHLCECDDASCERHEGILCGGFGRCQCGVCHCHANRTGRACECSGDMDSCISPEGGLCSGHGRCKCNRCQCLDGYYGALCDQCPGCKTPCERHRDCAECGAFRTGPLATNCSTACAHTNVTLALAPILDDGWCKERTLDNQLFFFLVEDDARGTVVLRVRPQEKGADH
- measurement_protocol: α4β7-MAdCAM Competition ELISA
- Assay type: binding
- run_parameters: thioether monomer peptides, Table 6; read-out: ELISA A4B7
- Protocol: α4β7-MAdCAM Competition ELISA A nickel coated plate (Pierce #15442) was coated with rh integrin α4β[…] Systems #5397-A30) at 800 ng/well and incubated at room temperature with shaking for 1 hr. The solution was then removed by shaking and blocked with assay buffer (50 mM Tris-HCl pH7.6, 150 mM NaCl, 1 mM MnCl2 or MgCl2, 0.05% Tween-20 and 0.5% BSA) at 250 ul/well. The plate was then incubated at room temperature for 1 hr. […] The reaction was stopped with 2N H2SO4 and absorbance was read at 450 nm.
pIC50: −log10 of the molar value. Where a SMILES comes first, the peptide text is derived from it.
property: pIC50

>  <compound>
CC(C)C[C@H](NC(=O)[C@@H](CCC(=O)O)NC(=O)[C@H](Cc1c[nH]c2ccccc12)NC(=O)[C@H]1NC(=O)[C@H](CC(C)C)NC(=O)[C@H]([C@@H](C)O)NC(=O)[C@H](CC(=O)O)NC(=O)[C@H](CO)NC(=O)[C@H](CCCNC(=N)N)N(C)C(=O)c2ccccc2CSC1(C)C)C(N)=O [compound 99] (HELM PEPTIDE1{[meR].S.D.T.L.[Pen].W.[dE].L.[am]}|CHEM1{[O=C(c1ccccc1C[*:2])[*:1]]}$PEPTIDE1,CHEM1,1:R1-1:R1|PEPTIDE1,CHEM1,6:R3-1:R2$$$V2.0)

>  <pIC50>
> 7.60

$$$$
>  <compound>
CC(C)C[C@@H]1NC(=O)[C@H]([C@@H](C)O)NC(=O)[C@H](CC(=O)O)NC(=O)[C@H](CO)NC(=O)[C@H](CCCNC(=N)N)N(C)C(=O)c2ccccc2CSC(C)(C)[C@@H](C(=O)N[C@@H](Cc2c[nH]c3ccccc23)C(=O)N[C@@H](CCC(=O)O)C(=O)N(C)[C@H](CCCCN)C(N)=O)NC1=O [compound 62] (HELM PEPTIDE1{[meR].S.D.T.L.[Pen].W.E.[CN([C@H](CCCCN)C(=O)[*:2])[*:1]].[am]}|CHEM1{[O=C(c1ccccc1C[*:2])[*:1]]}$PEPTIDE1,CHEM1,1:R1-1:R1|PEPTIDE1,CHEM1,6:R3-1:R2$$$V2.0)

>  <pIC50>
> 7.60

$$$$
>  <compound>
CC(C)C[C@@H]1NC(=O)[C@H]([C@@H](C)O)NC(=O)[C@H](CC(=O)O)NC(=O)[C@H](CO)NC(=O)[C@H](CCCNC(=N)N)N(C)C(=O)c2ccccc2CSC(C)(C)[C@@H](C(=O)N[C@@H](Cc2c[nH]c3ccccc23)C(=O)N[C@@H](CCC(=O)O)C(N)=O)NC1=O [compound 96] (HELM PEPTIDE1{[meR].S.D.T.L.[Pen].W.E.[am]}|CHEM1{[O=C(c1ccccc1C[*:2])[*:1]]}$PEPTIDE1,CHEM1,1:R1-1:R1|PEPTIDE1,CHEM1,6:R3-1:R2$$$V2.0)

>  <pIC50>
> 7.60

$$$$

pIC50 reading for CC(C)C[C@@H]1NC(=O)[C@H]([C@@H](C)O)NC(=O)[C@H](CC(=O)O)NC(=O)[C@H](CO)NC(=O)[C@H](CCCNC(=N)N)N(C)C(=O)C(C)SC(C)(C)[C@@H](C(=O)N[C@@H](Cc2c[nH]c3ccccc23)C(=O)N[C@H](CCCCN)C(N)=O)NC1=O (single isomer, unassigned) : < 6.00

pIC50 reading for CC(C)C[C@@H]1NC(=O)[C@H]([C@@H](C)O)NC(=O)[C@H](CC(=O)O)NC(=O)[C@H](CO)NC(=O)[C@H](CCCNC(=N)N)N(C)C(=O)c2ccccc2CSC(C)(C)[C@@H](C(=O)N[C@@H](Cc2c[nH]c3ccccc23)C(=O)N[C@H](CCC(=O)O)C(=O)N[C@H](Cc2ccc(O)cc2)C(N)=O)NC1=O [compound 110] (HELM PEPTIDE1{[meR].S.D.T.L.[Pen].W.[dE].[dY].[am]}|CHEM1{[O=C(c1ccccc1C[*:2])[*:1]]}$PEPTIDE1,CHEM1,1:R1-1:R1|PEPTIDE1,CHEM1,6:R3-1:R2$$$V2.0) : > 7.60

pIC50 reading for CC(C)C[C@@H]1NC(=O)[C@H]([C@@H](C)O)NC(=O)[C@H](CC(=O)O)NC(=O)[C@H](CO)NC(=O)[C@H](CCCNC(=N)N)N(C)C(=O)c2ccccc2CSC(C)(C)[C@@H](C(=O)N[C@@H](Cc2ccc3ccccc3c2)C(N)=O)NC1=O [compound 116] (HELM PEPTIDE1{[meR].S.D.T.L.[Pen].[O=C([C@H](Cc1ccc2ccccc2c1)N[*:1])[*:2]].[am]}|CHEM1{[O=C(c1ccccc1C[*:2])[*:1]]}$PEPTIDE1,CHEM1,1:R1-1:R1|PEPTIDE1,CHEM1,6:R3-1:R2$$$V2.0) : > 7.60

pIC50 reading for CC(C)C[C@@H]1NC(=O)[C@H]([C@@H](C)O)NC(=O)[C@H](CC(=O)O)NC(=O)[C@H](CO)NC(=O)[C@H](CCCNC(=N)N)N(C)C(=O)c2ccccc2CSC(C)(C)[C@@H](C(=O)N[C@@H](Cc2c[nH]c3ccccc23)C(=O)N[C@H](CCC(=O)O)C(=O)N[C@@H](Cc2c[nH]cn2)C(N)=O)NC1=O [compound 102] (HELM PEPTIDE1{[meR].S.D.T.L.[Pen].W.[dE].H.[am]}|CHEM1{[O=C(c1ccccc1C[*:2])[*:1]]}$PEPTIDE1,CHEM1,1:R1-1:R1|PEPTIDE1,CHEM1,6:R3-1:R2$$$V2.0) : > 7.60

pIC50 reading for CC(C)C[C@@H]1NC(=O)[C@H]([C@@H](C)O)NC(=O)[C@H](CC(=O)O)NC(=O)[C@H](CO)NC(=O)[C@H](CCCNC(=N)N)N(C)C(=O)c2ccccc2CSC[C@H](C(=O)N[C@@H](Cc2c[nH]c3ccccc23)C(=O)N[C@@H](CCC(=O)O)CC(=O)N[C@H](CCCCN)C(N)=O)NC1=O [compound 66] (HELM PEPTIDE1{[meR].S.D.T.L.[dC].W.[O=C(O)CC[C@@H](CC(=O)[*:2])N[*:1]].[dK].[am]}|CHEM1{[O=C(c1ccccc1C[*:2])[*:1]]}$PEPTIDE1,CHEM1,1:R1-1:R1|PEPTIDE1,CHEM1,6:R3-1:R2$$$V2.0) : 7.00 to 7.60
